testedOn: Phosphodiesterase 3A (Sus scrofa)
Sequence (Q9XSW7 whole entry): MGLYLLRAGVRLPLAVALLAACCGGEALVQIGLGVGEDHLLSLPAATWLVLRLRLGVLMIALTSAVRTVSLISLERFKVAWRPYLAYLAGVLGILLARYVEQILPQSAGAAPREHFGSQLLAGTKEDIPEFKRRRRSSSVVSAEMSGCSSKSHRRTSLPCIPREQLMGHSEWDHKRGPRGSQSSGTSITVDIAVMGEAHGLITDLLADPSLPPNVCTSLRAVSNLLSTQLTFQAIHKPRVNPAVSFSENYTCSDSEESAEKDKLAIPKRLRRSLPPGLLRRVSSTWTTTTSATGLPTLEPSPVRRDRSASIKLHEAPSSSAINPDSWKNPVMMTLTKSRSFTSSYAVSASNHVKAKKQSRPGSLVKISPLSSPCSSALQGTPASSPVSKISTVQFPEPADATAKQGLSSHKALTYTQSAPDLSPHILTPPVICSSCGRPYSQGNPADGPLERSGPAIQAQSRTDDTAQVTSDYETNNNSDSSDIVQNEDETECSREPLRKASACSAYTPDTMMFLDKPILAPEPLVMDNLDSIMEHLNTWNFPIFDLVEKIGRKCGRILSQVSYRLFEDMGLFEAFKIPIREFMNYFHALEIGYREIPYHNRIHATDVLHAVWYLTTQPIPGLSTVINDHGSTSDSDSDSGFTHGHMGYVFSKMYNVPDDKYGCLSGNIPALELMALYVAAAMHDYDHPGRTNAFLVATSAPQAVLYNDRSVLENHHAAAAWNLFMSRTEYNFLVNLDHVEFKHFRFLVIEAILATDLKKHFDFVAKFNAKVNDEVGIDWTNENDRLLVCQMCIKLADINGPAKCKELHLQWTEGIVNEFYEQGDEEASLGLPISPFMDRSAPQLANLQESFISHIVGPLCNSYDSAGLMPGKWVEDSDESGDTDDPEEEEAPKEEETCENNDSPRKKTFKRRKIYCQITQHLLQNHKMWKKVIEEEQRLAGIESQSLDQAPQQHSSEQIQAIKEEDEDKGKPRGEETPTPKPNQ
pIC50: −log10 of the molar value.
experimentalEndpoint: pIC50

Quote Phosphodiesterase 3A (Sus scrofa) pIC50 for entry CSc1ccc2ncnc(NCc3ccc4c(c3)OCO4)c2c1 .
< 4.00
